Source: ChEMBL document CHEMBL3507680

Assay: Human HepG2 cell viability assay in 384 well format
Format: toxicity, cell-based
Design: dose 125 nL, time 70.5 hour; concentration not given beside the values
Details: HepG2 cells, read-out: Inhibition
reported-metric: cytotoxicity at 70.5 h (%)

INSERT INTO results (compound, scale_unit, numeric_value) VALUES
  ('CN1CCC/C1=N\S(=O)(=O)c1ccc(NC(=O)c2ccc(F)cc2)cc1', '%', -4.6),
  ('COc1ccnc(CN2CCCC(CCc3ccc(F)cc3)C2)c1OC (centres undefined)', '%', 2.04),
  ('CC(C)n1ccc(CN2CCN(c3cc(NC4CC4)nc(N)n3)CC2)c1', '%', -9),
  ('Clc1ccc(-n2cnnc2CCCN2CCOCC2)cc1', '%', 1.11),
  ('CCN1C[C@@H]2CN(C(=O)c3ccsc3)C[C@@H]2C1=O', '%', -0.46),
  ('Cc1cc(C(=O)N2CCN(c3ncc4c(n3)CCOC4)CC2)sc1C', '%', 2.24),
  ('CN(C)C(=O)c1cnn2c1OCCC2', '%', -2.65),
  ('Cc1csc(NC(=O)C2(C)CCCO2)n1 (centres undefined)', '%', -7.86),
  ('O=C(NCCNc1ccccn1)NCC1CCS(=O)(=O)C1 (centres undefined)', '%', 4.42),
  ('Cc1ccc(OCCN(C)C(=O)NC(C)c2nncn2C)cc1 (centres undefined)', '%', -5.04),
  ('Cc1ccccc1CN1CCN(C(=O)c2ccn(C(C)(C)C)c2)CC1', '%', 16.3),
  ('Cc1ccc(CNC(=O)NCc2nccn2C)c(OC(C)(C)C)c1', '%', -2.56),
  ('Cc1c(C)n(-c2ccccn2)c2nc3c(c(N)c12)CCCCC3', '%', -10.8),
  ('CN(CCC(O)c1ccccc1)c1cc(N2CCOCC2)ncn1 (centres undefined)', '%', -11),
  ('COc1cccc(-c2n[nH]c3c2CN(C(=O)c2ccncc2)CC3)c1', '%', -5.87),
  ('O=C(Nc1ccccc1Cn1cccn1)N1CCCC(N2CCCC2)C1 (centres undefined)', '%', 16.1),
  ('O=C(CCNc1ncccn1)NCc1cccc(OC(F)F)c1', '%', -11.7),
  ('COc1ccc(-c2ccc(C(=O)NS(C)(=O)=O)c(F)c2)cc1', '%', -5.82),
  ('Cc1nsc(N2CCCN(C(=O)NCc3cc(C)on3)CC2)n1', '%', -1.32),
  ('Cn1ncc2c(NCCn3cccc3)nc(C3CCCC3)nc21', '%', -5.71),
  ('Cc1nc(C)n(CC2CCCN2CCCc2ccccc2)n1 (centres undefined)', '%', -6.68),
  ('O=C(NCCN1CCOCC1)c1cc(-c2ccccc2Cl)[nH]n1', '%', 1.45),
  ('NC(=O)CN1CCC(c2cncc(-c3cccc(Cl)c3)n2)CC1', '%', 15.3),
  ('CC(C)CN1CCC2(CC1)C(=O)Nc1ccc(C(=O)NC(C)C)cc12', '%', -0.986),
  ('CCc1nnc2n1CCN(CC(=O)Nc1cc(C)on1)C2', '%', 0.374),
  ('CCCSc1ncc(Cl)c(C(=O)NC(CCSC)C(=O)O)n1 (centres undefined)', '%', -7.81),
  ('COc1ccc(-n2cc(CCO)cn2)cc1C(N)=O', '%', -14.7),
  ('COCCN1CCC(c2cncc(-c3ccccc3C)n2)CC1', '%', -4.28),
  ('CNC(=O)NC(=O)COc1c(C(C)=O)ccc(Cl)c1Cl', '%', -9.38),
  ('Cc1cccc2c1nc(COCC(=O)O)n2-c1ccc(N)nc1', '%', 9.09),
  ('Cc1ncc2c(n1)CN(C(C(N)=O)c1ccc(F)cc1)CC2 (centres undefined)', '%', -2.82),
  ('CN(C)C(=O)c1noc2c1CN(C(=O)CCC1CCCCN1C)CC2 (centres undefined)', '%', -4.32),
  ('Cc1nn(C)c(Cl)c1C1CCCN1CC(=O)N1CCCCC1 (centres undefined)', '%', 26.9),
  ('CC(C)c1nc(CN(C)C(=O)c2ccccc2C2CCNC2)cs1 (centres undefined)', '%', -8.26),
  ('CN(C)S(=O)(=O)N1CC[C@]2(O)CCN(c3nccs3)C[C@@H]2C1', '%', 21.2),
  ('CCc1nc(CN(C(C)=O)C2CCN(CCc3cccs3)C2)no1 (centres undefined)', '%', 13),
  ('c1cc(CNCC2Cn3nncc3CO2)ccn1 (centres undefined)', '%', -5.93),
  ('COc1cc(N2C[C@H]3CN(CC(=O)N(C)C)C(=O)[C@H]3C2)ncn1', '%', 28.2),
  ('c1cc(CN2CCCn3cnc(COCC4CC4)c3C2)ccn1', '%', -2.95);
